# System: OCI-LY10
# protocolDetails: CTG Cell Viability Assay - OCI-LY10
# Assay type: cell-based, human
# reportedConditions: Homo sapiens, OCI-Ly10, 96 h, OCI-LY10, 4 days; read-out: CTG Cell Viability Assay - OCI-LY10: Average external-IC50
# Description: Compound-mediated viability effect on OCI-LY10 or TMD8 was quantitatively determined using the CellTiter-Glo® Luminescent Cell Viability Assay kit from Promega (Catalog number G7570) following manufacturer's recommended procedures. […] The data was then analyzed by software Prism 7.0 from GraphPad and the dose response curves were fit using a three-parameter logistic equation to calculate IC50.
pIC50: −log10 of the molar value.
Reported pIC50 values are given for each entry in this list.
observable: pIC50

[
  {
    "compound": "Cn1c(=O)n(C2CCC(=O)NC2=O)c2cccc(CCCOCCOCCNC(=O)[C@H]3CC[C@H](n4cc(NC(=O)c5coc(-c6ccnc(NCC7CC7)c6)n5)c(C(F)F)n4)CC3)c21 (stereo partly drawn)",
    "measuredTarget": "OCI-LY10",
    "observable": "pIC50",
    "reportedValue": "7.00 to 7.30"
  },
  {
    "compound": "CN(C[C@H]1CC[C@H](n2cc(NC(=O)c3coc(-c4ccnc(NCC5CC5)c4)n3)c(C(F)F)n2)CC1)C1CCN(Cc2cccc3c2C(=O)N(C2CCC(=O)NC2=O)C3=O)CC1 (stereo partly drawn)",
    "measuredTarget": "OCI-LY10",
    "observable": "pIC50",
    "reportedValue": "< 6.00"
  },
  {
    "compound": "CN1C(=O)CCC(n2c(=O)n(C)c3c(CCCOC4CCN(C[C@H]5CC[C@H](n6cc(NC(=O)c7cnn8ccc(N9CCOCC9)nc78)c(C(F)F)n6)CC5)CC4)cccc32)C1=O (stereo partly drawn)",
    "measuredTarget": "OCI-LY10",
    "observable": "pIC50",
    "reportedValue": "< 6.00"
  }
]

---

# measuredTarget: IRAK4 (Homo sapiens (Human))
# Sequence (Q9NWZ3 whole entry): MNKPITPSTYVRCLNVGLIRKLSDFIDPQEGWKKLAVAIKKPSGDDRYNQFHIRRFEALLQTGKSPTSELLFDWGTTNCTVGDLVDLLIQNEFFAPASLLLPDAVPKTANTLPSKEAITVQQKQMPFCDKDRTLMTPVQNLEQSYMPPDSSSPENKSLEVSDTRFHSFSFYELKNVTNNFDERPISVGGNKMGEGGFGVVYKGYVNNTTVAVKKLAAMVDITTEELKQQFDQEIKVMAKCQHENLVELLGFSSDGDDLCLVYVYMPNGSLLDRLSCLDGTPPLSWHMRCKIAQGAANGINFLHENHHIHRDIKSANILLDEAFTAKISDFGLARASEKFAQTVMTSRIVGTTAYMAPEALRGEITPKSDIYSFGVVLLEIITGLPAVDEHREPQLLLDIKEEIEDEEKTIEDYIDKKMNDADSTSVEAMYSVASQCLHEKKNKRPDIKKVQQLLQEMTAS
# protocolDetails: IRAK4 MSD degradation in OCI-LY10
# Assay type: cell-based
# reportedConditions: OCI-LY10, 4 hrs, MSD; read-out: IRAK4 MSD degradation in OCI-LY10 at 4 hrs: Average external-Abs DC50
observable: DC50

[
  {
    "compound": "Cn1c(=O)n(C2CCC(=O)NC2=O)c2cccc(CCCOC3CCN([C@H]4CC[C@H](Nc5ncnc6ccc(C#N)cc56)CC4)CC3)c21 (some centres unmarked) [I-304]",
    "observable": "DC50",
    "reportedValue": "> 1000 nM"
  },
  {
    "compound": "CN1C(=O)C(C2CCC(=O)NC2=O)c2cccc(CCCOC3CCN(C[C@H]4CC[C@H](n5cc(NC(=O)c6cnn7ccc(N8CC(O)C8)nc67)c(C(F)F)n5)CC4)CC3)c21 (some centres unmarked) [I-284]",
    "observable": "DC50",
    "reportedValue": "< 10 nM"
  },
  {
    "compound": "Cn1c(=O)n(C2CCC(=O)NC2=O)c2cccc(CN3CCC(CN4CCC(n5cc(NC(=O)c6cnn7ccc(N[C@@H]8CCCC[C@@H]8O)nc67)c(C(F)F)n5)CC4)CC3)c21 (some centres unmarked) [I-150]",
    "observable": "DC50",
    "reportedValue": "10 to 100 nM"
  },
  {
    "compound": "CN(C[C@H]1CC[C@H](n2cc(NC(=O)c3coc(-c4ccnc(NCC5CC5)c4)n3)c(C(F)F)n2)CC1)C1CCN(Cc2cccc3c2n(C)c(=O)n3C2CCC(=O)NC2=O)CC1 (some centres unmarked) [I-400]",
    "observable": "DC50",
    "reportedValue": "< 10 nM"
  },
  {
    "compound": "O=C1CCC(n2c(=O)oc3cc(CCCOC4CCN(C[C@H]5CC[C@H](n6cc(NC(=O)c7cnn8ccc(N9CCNCC9)nc78)c(C(F)F)n6)CC5)CC4)ccc32)C(=O)N1 (some centres unmarked) [I-166]",
    "observable": "DC50",
    "reportedValue": "10 to 100 nM"
  }
]
